Test system: HMEC cells
ASSAY DETAILS: Micronuclei per 100 cells 24 h after contacting, Table 4 lower part (HMEC)
Format: cell-based, human
CONDITION NOTES: line cell blank (below Hasp), 1000 μM
Micronuclei values by entry
MEASURED QUANTITY: Micronuclei (per 100 cells)

>>> observed_measurement("[Cl][Al]([Cl])[Cl]")
11.5
>>> observed_measurement("[Cl][Cu][Cl]")
4
>>> observed_measurement("O=[N+]([O-])[O-].O=[N+]([O-])[O-].[Pb+2]")
10
>>> observed_measurement("O=S(=O)([O-])[O-].[Cu+2]")
4

The values you see were collected from patent US20180238860A1.
